Kindly state MIC for each of the entries shown.
Tested on: Enterococcus faecalis
Experiment: Synergistic antibacterial activity against Enterococcus faecalis MTCC 439 assessed as inhibition of bacterial growth incubated overnight in presence of ciprofloxacin by serial dilution based spectrophotometer
Assay type: functional
Answer format: number, then unit.

Here are 2 compounds together with their reported answers.
Fc1ccc(/C=N/CCNc2ccnc3cc(Cl)ccc23)cc1; 128 µg/mL
O=[N+]([O-])c1ccccc1/C=N/CCNc1ccnc2cc(Cl)ccc12; 2 µg/mL

Value sought for every listed compound: MIC.
1. O=C1Nc2ccc(Cl)cc2/C1=N/CCNc1ccnc2cc(Cl)ccc12
2. Clc1ccc2c(NCC/N=C/c3ccc4ccccc4n3)ccnc2c1

1: 64 µg/mL; 2: 16 µg/mL

----------
System: Escherichia coli
Experiment: Ratio of MBC for antibacterial activity against Escherichia coli MTCC 443 to MIC for bactericidal activity against Escherichia coli MTCC 443
Assay type: functional
Kindly state Ratio for each of the entries shown.
Numbers only.

Fc1ccc(/C=N/CCNc2ccnc3cc(Cl)ccc23)cc1; 1
Clc1ccc2c(NCC/N=C/c3ccco3)ccnc2c1; 1

// lookup Ratio for "Clc1ccc2c(NCC/N=C/c3ccccn3)ccnc2c1"
2

----------
System: Escherichia coli
Assay: Ratio of MBC for antibacterial activity against Escherichia coli MTCC 443 to MIC for bactericidal activity against Escherichia coli MTCC 443
Type: functional
TEST READOUT: Ratio

O=[N+]([O-])c1ccccc1/C=N/CCNc1ccnc2cc(Cl)ccc12; 1
CC(C)c1ccc(/C=N/CCNc2ccnc3cc(Cl)ccc23)cc1; 1
Oc1cccc(/C=N/CCNc2ccnc3cc(Cl)ccc23)c1; 1
O=[N+]([O-])c1ccc(/C=N/CCNc2ccnc3cc(Cl)ccc23)cc1; 1
Clc1ccc2c(NCC/N=C/c3ccc4ccccc4n3)ccnc2c1; 1

Attention now shifts to the item below.
Tell me reported Ratio for "Clc1ccc2c(NCC/N=C/c3ccc[nH]3)ccnc2c1" , tested with Escherichia coli.
2

----------
System: Bacillus subtilis
Assay: Antibacterial activity against Bacillus subtilis MTCC 736 assessed as diameter of zone of inhibition at MIC incubated overnight by disk diffusion method
Assay type: functional
Kindly state diameter of the inhibition zone (DIZ) for each of the entries shown.

Here are 4 compounds together with their reported answers.
O=C1Nc2cc(Cl)ccc2/C1=N/CCNc1ccnc2cc(Cl)ccc12; 11 mm
Clc1ccc2c(NCC/N=C/c3ccc4ccccc4n3)ccnc2c1; 6 mm
O=C1Nc2ccc(Cl)cc2/C1=N/CCNc1ccnc2cc(Cl)ccc12; 6 mm
O=[N+]([O-])c1ccccc1/C=N/CCNc1ccnc2cc(Cl)ccc12; 9 mm

Attention now shifts to the item below.
// lookup diameter of the inhibition zone (DIZ) for "Fc1ccc(/C=N/CCNc2ccnc3cc(Cl)ccc23)cc1"
9 mm

----------
Tested on: Pseudomonas aeruginosa
Assay: Ratio of MBC for antibacterial activity against Pseudomonas aeruginosa MTCC 2453 to MIC for bactericidal activity against Pseudomonas aeruginosa MTCC 2453
Assay type: functional
TEST READOUT: Ratio
Give bare numbers.

Here are 3 compounds together with their reported answers.
O=C1Nc2ccc(Cl)cc2/C1=N/CCNc1ccnc2cc(Cl)ccc12; 1
Fc1ccc(/C=N/CCNc2ccnc3cc(Cl)ccc23)cc1; 1
O=C1Nc2cc(Cl)ccc2/C1=N/CCNc1ccnc2cc(Cl)ccc12; 2

Value sought for every listed compound: Ratio.
1. Clc1ccc2c(NCC/N=C/c3ccc4ccccc4n3)ccnc2c1
2. O=[N+]([O-])c1ccccc1/C=N/CCNc1ccnc2cc(Cl)ccc12
3. Clc1ccc2c(NCC/N=C/c3ccccn3)ccnc2c1

1: 2; 2: 1; 3: 1

----------
System: Enterococcus faecalis
Test: Antibacterial activity against Enterococcus faecalis MTCC 439 assessed as diameter of zone of inhibition at 2 times MIC incubated overnight by disk diffusion method
Format: functional
Kindly state diameter of the inhibition zone (DIZ) for each of the entries shown.
Answers are plain numbers, in mm.

Fc1ccc(/C=N/CCNc2ccnc3cc(Cl)ccc23)cc1; 7
O=[N+]([O-])c1ccccc1/C=N/CCNc1ccnc2cc(Cl)ccc12; 12
O=C1Nc2cc(Cl)ccc2/C1=N/CCNc1ccnc2cc(Cl)ccc12; 8
Clc1ccc2c(NCC/N=C/c3ccc4ccccc4n3)ccnc2c1; 7

// lookup diameter of the inhibition zone (DIZ) for "O=C1Nc2ccc(Cl)cc2/C1=N/CCNc1ccnc2cc(Cl)ccc12"
19

----------
Kindly state MIC for each of the entries shown.
Tested on: Pseudomonas aeruginosa
Experiment: Synergistic antibacterial activity against Pseudomonas aeruginosa MTCC 2453 assessed as inhibition of bacterial growth incubated overnight in presence of ciprofloxacin by serial dilution based spectrophotometer
Type: functional
Give bare numbers, in µg/mL.

Here are 4 compounds together with their reported answers.
O=C1Nc2ccc(Cl)cc2/C1=N/CCNc1ccnc2cc(Cl)ccc12; 8
Fc1ccc(/C=N/CCNc2ccnc3cc(Cl)ccc23)cc1; 256
Clc1ccc2c(NCC/N=C/c3ccc4ccccc4n3)ccnc2c1; 64
O=[N+]([O-])c1ccccc1/C=N/CCNc1ccnc2cc(Cl)ccc12; 64

Attention now shifts to the item below.
// lookup MIC for "O=C1Nc2cc(Cl)ccc2/C1=N/CCNc1ccnc2cc(Cl)ccc12"
32

----------
Tested on: Bacillus subtilis
Experiment: Antibacterial activity against Bacillus subtilis MTCC 736 assessed as diameter of zone of inhibition at 2 times MIC incubated overnight by disk diffusion method
Type: functional
TEST READOUT: diameter of the inhibition zone (DIZ) (mm)
One number for each entry, in mm.

Fc1ccc(/C=N/CCNc2ccnc3cc(Cl)ccc23)cc1; 13
O=C1Nc2cc(Cl)ccc2/C1=N/CCNc1ccnc2cc(Cl)ccc12; 10
O=C1Nc2ccc(Cl)cc2/C1=N/CCNc1ccnc2cc(Cl)ccc12; 8
Clc1ccc2c(NCC/N=C/c3ccc4ccccc4n3)ccnc2c1; 10

Attention now shifts to the item below.
// lookup diameter of the inhibition zone (DIZ) for "O=[N+]([O-])c1ccccc1/C=N/CCNc1ccnc2cc(Cl)ccc12"
11

----------
System: Salmonella typhi
Assay: Ratio of MBC for antibacterial activity against Salmonella typhi to MIC for bactericidal activity against Salmonella typhi
Format: functional, Salmonella enterica subsp. enterica serovar Typhi
TEST READOUT: Ratio
Give bare numbers.

Here are 5 compounds together with their reported answers.
Clc1ccc2c(NCC/N=C/c3ccc4ccccc4n3)ccnc2c1; 1
Oc1cccc(/C=N/CCNc2ccnc3cc(Cl)ccc23)c1; 1
O=[N+]([O-])c1ccc(/C=N/CCNc2ccnc3cc(Cl)ccc23)cc1; 1
CC(C)c1ccc(/C=N/CCNc2ccnc3cc(Cl)ccc23)cc1; 1
O=[N+]([O-])c1ccccc1/C=N/CCNc1ccnc2cc(Cl)ccc12; 1

// lookup Ratio for "Fc1ccc(/C=N/CCNc2ccnc3cc(Cl)ccc23)cc1"
1

----------
Test system: Pseudomonas aeruginosa
Test: Antibacterial activity against Pseudomonas aeruginosa MTCC 2453 assessed as diameter of zone of inhibition at 2 times MIC incubated overnight by disk diffusion method
Type: functional
Kindly state diameter of the inhibition zone (DIZ) for each of the entries shown.

Here are 4 compounds together with their reported answers.
Clc1ccc2c(NCC/N=C/c3ccc4ccccc4n3)ccnc2c1; 8 mm
O=C1Nc2ccc(Cl)cc2/C1=N/CCNc1ccnc2cc(Cl)ccc12; 20 mm
O=C1Nc2cc(Cl)ccc2/C1=N/CCNc1ccnc2cc(Cl)ccc12; 9 mm
O=[N+]([O-])c1ccccc1/C=N/CCNc1ccnc2cc(Cl)ccc12; 11 mm

Attention now shifts to the item below.
// lookup diameter of the inhibition zone (DIZ) for "Fc1ccc(/C=N/CCNc2ccnc3cc(Cl)ccc23)cc1"
9 mm

----------
Tested on: Escherichia coli
Assay: Antibacterial activity against Escherichia coli MTCC 443 assessed as diameter of zone of inhibition at 500 ug/ml by agar disk diffusion method
Format: functional
Settings: read-out: DIZ
Hi, to clarify the labels: Condition met covers zone of inhibition at 500 µg/mL from 10 mm upward, Condition not met covers anything below 10 mm.

Past entries and their recorded results:
O=[N+]([O-])c1ccc(/C=N/CCNc2ccnc3cc(Cl)ccc23)cc1; Condition met
Clc1ccc2c(NCC/N=C/c3ccco3)ccnc2c1; Condition not met
O=C1Nc2ccc(Cl)cc2/C1=N/CCNc1ccnc2cc(Cl)ccc12; Condition met
COc1ccc(/C=N/CCNc2ccnc3cc(Cl)ccc23)cc1OC; Condition not met
Clc1ccc2c(NCC/N=C/c3ccc4ccccc4n3)ccnc2c1; Condition met
Clc1ccc(/C=N/CCNc2ccnc3cc(Cl)ccc23)cc1; Condition not met
Clc1ccc2c(NCC/N=C/c3ccc[nH]3)ccnc2c1; Condition not met
Fc1ccc(/C=N/CCNc2ccnc3cc(Cl)ccc23)cc1; Condition not met
COc1ccc(/C=N/CCNc2ccnc3cc(Cl)ccc23)cc1; Condition not met
O=C1Nc2ccccc2/C1=N/CCNc1ccnc2cc(Cl)ccc12; Condition met

Confirm if zone of inhibition at 500 µg/mL reported for the compound "Cc1ccc(/C=N/CCNc2ccnc3cc(Cl)ccc23)cc1" is 10 mm or above.
Condition not met

Confirm if zone of inhibition at 500 µg/mL reported for the compound "Clc1ccc2c(NCC/N=C/c3cccs3)ccnc2c1" is 10 mm or above.
Condition not met

Confirm if zone of inhibition at 500 µg/mL reported for the compound "Oc1cccc(/C=N/CCNc2ccnc3cc(Cl)ccc23)c1" is 10 mm or above.
Condition met

Confirm if zone of inhibition at 500 µg/mL reported for the compound "Cc1cccc2c1NC(=O)/C2=N\CCNc1ccnc2cc(Cl)ccc12" is 10 mm or above.
Condition met

Confirm if zone of inhibition at 500 µg/mL reported for the compound "O=C1Nc2ccc(Br)cc2/C1=N/CCNc1ccnc2cc(Cl)ccc12" is 10 mm or above.
Condition met
